Value source: ChEMBL document CHEMBL4715724

- Tested on: Panel leukemia (Carcinoma cell lines)
- TEST_NAME: cells
- Assay type: functional
- STATED_CONDITIONS: Homo sapiens, time 48 hrs
- Description: Growth inhibition of human Panel leukemia (Carcinoma cell lines) incubated for 48 hrs by sulforhodamine B assay
Reported log10 of LC50 (50% lethal concentration) is given for each of the following compounds.
VALUE_KIND: log10 of LC50 (50% lethal concentration) (log10 of the value in µM)

{"MOLECULE_SMILES": "CN1CCN(CCCOc2cccc3nc(Nc4cc(Cl)cc(Cl)c4)ccc23)CC1", "EXPERIMENTAL_TARGET": "Panel leukemia (Carcinoma cell lines)", "log10 of LC50 (50% lethal concentration)": 2.00}
{"MOLECULE_SMILES": "CN1CCN(CCCOc2cccc3nc(Nc4ccc(F)c(F)c4)ccc23)CC1", "EXPERIMENTAL_TARGET": "Panel leukemia (Carcinoma cell lines)", "log10 of LC50 (50% lethal concentration)": 1.32}
{"MOLECULE_SMILES": "CN1CCN(CCCOc2cccc3nc(Nc4ccc(Cl)c(C(F)(F)F)c4)ccc23)CC1", "EXPERIMENTAL_TARGET": "Panel leukemia (Carcinoma cell lines)", "log10 of LC50 (50% lethal concentration)": 0.89}
{"MOLECULE_SMILES": "CN1CCN(CCCOc2cccc3nc(Nc4cccc(Cl)c4)ccc23)CC1", "EXPERIMENTAL_TARGET": "Panel leukemia (Carcinoma cell lines)", "log10 of LC50 (50% lethal concentration)": 1.58}
{"MOLECULE_SMILES": "CN1CCN(CCCOc2cccc3nc(Nc4ccc(Cl)c(F)c4)ccc23)CC1", "EXPERIMENTAL_TARGET": "Panel leukemia (Carcinoma cell lines)", "log10 of LC50 (50% lethal concentration)": 1.73}
